Provenance of the data: ChEMBL document CHEMBL3885861

species: Rattus norvegicus; experiment: Open TG-GATES - Regimen: Single; format: toxicity, organism-based, Sprague-Dawley; design: regimen Single, gender Male, age 6 weeks; conditions: in vivo, po, 1000 mg/kg, 9 h, tissue Plasma, route gavage, dose level High
Can you tell me CRE for the items I'm about to list?
Please state the figure in mg/dL; there is no need to write the unit.

The recorded CRE for entry COc1ccc2[nH]c([S+]([O-])Cc3ncc(C)c(OC)c3C)nc2c1 (stereo not given) equals 0.3

Lab note: measured CRE of "NC(N)=Nc1nc(CSCCC(N)=NS(N)(=O)=O)cs1" was 0.4

Record "COC1=CC(=O)C[C@@H](C)[C@]12Oc1c(Cl)c(OC)cc(OC)c1C2=O" . Reported CRE: 0.3

response.value for CC(C)OC(=O)C(C)(C)Oc1ccc(C(=O)c2ccc(Cl)cc2)cc1 [FENOFIBRATE] (field: CRE) = 0.2

For record CCOC(=O)CCC(=O)O[C@H]1[C@H](O[C@@H]2[C@@H](C)[C@H](O[C@H]3C[C@@](C)(OC)[C@@H](O)[C@H](C)O3)[C@@H](C)C(=O)O[C@H](CC)[C@@](C)(O)[C@H](O)[C@@H](C)C(=O)[C@H](C)C[C@@]2(C)O)O[C@H](C)C[C@@H]1N(C)C [ERYTHROMYCIN ETHYLSUCCINATE] the listed CRE is 0.1
